# protocolNotes: Binding affinity to Bovicola ovis recombinant ecdysone receptor ligand binding domain after 3 hrs by fluorescence polarization assay
Assign IC50 to each entry below.
One number for each entry, in µM.

Example molecules with recorded IC50:
C=C1C(C)=C(C#N)C(=O)N1c1c(C)cccc1C(C)(C)C    160
C=C1C(CCCC)=C(C#N)C(=O)N1c1c(C)cccc1[N+](=O)[O-]    71
C=C1C(C)=C(C#N)C(=O)N1c1ccccc1C    80
C=C1C(C)=C(C#N)C(=O)N1C1CCCc2ccccc21 (centres undefined)    26
C=C1C(C)=C(C#N)C(=O)N1c1ccccc1OC(F)(F)F    45

For every item in the list below, what is its measured IC50?
1. C=C1C(C)=C(C#N)C(=O)N1c1nccs1
2. C=C1C(C)=C(C#N)C(=O)N1c1cnc2ccccc2c1
3. C=C1C(CCC)=C(C#N)C(=O)N1C1CCCCC1
4. C=C1C(CC(C)C)=C(C#N)C(=O)N1c1cc(Cl)ccc1Cl
5. C=C1C(C)=C(C(=O)c2ccccc2)C(=O)N1c1cc(C(F)(F)F)ccc1Cl
6. C=C1C(C)=C(C#N)C(=O)N1c1cccc(Cl)c1
7. C=C1C(C)=C(C#N)C(=O)N1c1c(CC)cccc1C(C)(C)C
8. C=C1C(CC)=C(C#N)C(=O)N1NC(=O)c1ccc(Cl)cc1

1. 90
2. 26
3. 27.5
4. 6.8
5. 18
6. 19
7. 150
8. 72.5

Suppose we examine the molecule C=C1C(CC(C)C)=C(C#N)C(=O)N1c1c(C)cc(C)cc1C ; what IC50 value has been reported?
30

Numbers sourced from ChEMBL document CHEMBL1250461.
